Assay: Drug uptake in wild type MDR1A expressing CF1 mouse plasma at 30 mg/kg, po after 6 hrs
Assay type: ADME, organism-based
Set-up: dose 30 mg/kg, route oral
Measured attribute: concentration at 6 h (nM)
Provide only the numeric value, understood in nM.

query: GET /values?readout=concentration at 6 h&item= `C[C@@H](c1ccc(-c2ccccc2)cc1)[C@H](NC(=O)C(C)(C)N)C(=O)N1CCC[C@H]1c1nc2cc(Cl)c(Cl)cc2[nH]1`
result: 91

====

Listing: bioavailability of selected compounds
Test: Oral bioavailability in mouse at 2 mg/kg by LC-MS/MS analysis
Type: ADME, organism-based
Conditions: in vivo
Provide only the numeric value, understood in %.

compound=O=C(CCN1CCC(c2nc(-c3ccccn3)no2)CC1)NC(c1ccc(Cl)cc1)c1ccc(Cl)cc1 obs_value=1.3

query: GET /values?readout=bioavailability&item= C[C@@H](c1ccc(-c2ccccc2)cc1)[C@H](NC(=O)C(C)(C)N)C(=O)NC(c1ccc(Cl)cc1)C(F)(F)F (mixture of isomers)
result: 40

====

Assay: Drug uptake in wild type MDR1A expressing CF1 mouse brain at 30 mg/kg, po after 6 hrs
Type: ADME, organism-based
Design: dose 30 mg/kg, route oral
Conditions: read-out: Drug uptake
Measured attribute: concentration at 6 h (nM)
Provide only the numeric value, understood in nM.

query: GET /values?readout=concentration at 6 h&item= `C[C@@H](c1ccc(-c2ccccc2)cc1)[C@H](NC(=O)C(C)(C)N)C(=O)N1CCC[C@H]1c1nc2cc(Cl)c(Cl)cc2[nH]1`
result: 3

====

Test: Drug uptake in MDR1A knock-out CF1 mouse plasma at 30 mg/kg, po after 2 hrs
Assay type: ADME, organism-based
Design: dose 30 mg/kg, route oral
Measured attribute: concentration at 2 h (nM)
Provide only the numeric value, understood in nM.

query: GET /values?readout=concentration at 2 h&item= `C[C@@H](c1ccc(-c2ccccc2)cc1)[C@H](NC(=O)C(C)(C)N)C(=O)N1CCC[C@H]1c1nc2cc(Cl)c(Cl)cc2[nH]1`
result: 186

====

Listing: half-life of selected compounds
Test: Half life in mouse at 1 mg/kg, iv and 2 mg/kg, po by LC-MS/MS analysis
Format: ADME, organism-based
Conditions: in vivo
Provide only the numeric value, understood in h.

Example entries and their recorded answers appear below.
compound="C[C@@H](c1ccc(-c2ccccc2)cc1)[C@H](NC(=O)C(C)(C)N)C(=O)NC(c1ccc(Cl)cc1)C(F)(F)F (mixture of isomers)" obs_value=4.4
compound=C[C@H](NC(=O)CCN1CCC(c2ccccc2)CC1)c1ccc(Cl)cc1 obs_value=2.3
compound=O=C(CCN1CCC(c2nc(-c3ccccn3)no2)CC1)NC(c1ccc(Cl)cc1)c1ccc(Cl)cc1 obs_value=0.7

query: GET /values?readout=half-life&item= C[C@@H](c1ccc(-c2ccccc2)cc1)[C@H](NC(=O)C(C)(C)N)C(=O)NC(c1ccncc1)c1ccc(Cl)cc1 (mixture of isomers)
result: 3.6

====

Assay: Ratio of drug level in brain to plasma in wild type MDR1A expressing CF1 mouse at 30 mg/kg, po after 2 hrs
Format: ADME, organism-based
Parameters: dose 30 mg/kg, route oral
Conditions: read-out: BPR
Measured attribute: Kp at 2 h
Response field accepts a number only; no unit should be typed.

query: GET /values?readout=Kp at 2 h&item= `C[C@@H](c1ccc(-c2ccccc2)cc1)[C@H](NC(=O)C(C)(C)N)C(=O)N1CCC[C@H]1c1nc2cc(Cl)c(Cl)cc2[nH]1`
result: 0.01

====

Experiment: Volume of distribution in mouse at 1 mg/kg, iv and 2 mg/kg, po by LC-MS/MS analysis
Assay type: ADME, organism-based
Conditions: in vivo
Listing: Vd of selected compounds
Provide only the numeric value, understood in L/kg.

query: GET /values?readout=Vd&item= `O=C(CCN1CCC(c2nc(-c3ccccn3)no2)CC1)NC(c1ccc(Cl)cc1)c1ccc(Cl)cc1`
result: 5.6

====

Molecular target: Lysosomal Pro-X carboxypeptidase (Mus musculus)
Assay: Inhibition of PrCP-mediated conversion of Ang3 to Ang(2-7) in mouse plasma
Measured attribute: pIC50
Scale: pIC50 equals -log10([C]), with [C] in mol/L.

Example entries and their recorded answers appear below.
compound="O=C(CCN1CCC(c2ccccc2)CC1)NC(c1ccc(Cl)cc1)C(F)F (stereo not given)" measured_attribute=pIC50 obs_value=7.77
compound=C[C@H](NC(=O)[C@@H](N)[C@@H](C)c1ccc(-c2ccccc2)cc1)c1ccc(Cl)cc1 measured_attribute=pIC50 obs_value=6.24
compound=C[C@H](NC(=O)CCN1CCC(c2nc(-c3ccccn3)no2)CC1)c1ccc(F)cc1 measured_attribute=pIC50 obs_value=6.46
compound=CC(C)[C@H](NC(=O)CCN1CCC(c2ccccc2)CC1)c1ccc(Cl)cc1 measured_attribute=pIC50 obs_value=7.90
compound="C[C@@H](c1ccc(-c2ccccc2)cc1)[C@H](NC(=O)C(C)(C)N)C(=O)NC(c1ccc(Cl)cc1)C(F)F (mixture of isomers)" measured_attribute=pIC50 obs_value=6.34

query: GET /values?readout=pIC50&item= C[C@@H](c1ccc(-c2ccccc2)cc1)[C@H](N)C(=O)NC(c1ccncc1)c1ccc(Cl)cc1 (mixture of isomers)
result: 6.97

query: Now consider O=C(CCN1CCC(c2nc(-c3ccccn3)no2)CC1)NC(c1ccncc1)c1ccc(F)cc1 (racemic) .
result: 7.82

query: Now consider `O=C(CCN1CCC(c2ccccc2)CC1)NC(c1ccc(Cl)cc1)c1ccc(Cl)cc1` .
result: 7.24

query: Now consider `C[C@@H](c1ccc(-c2ccccc2)cc1)[C@H](NC(=O)C(C)(C)N)C(=O)N1CCC[C@H]1c1nc2cc(Cl)c(Cl)cc2[nH]1` .
result: 7.59

query: Now consider O=C(CCN1CCC(c2nc(-c3ccccn3)no2)CC1)NC(c1ccc(Cl)cc1)C(F)F (racemic) .
result: 6.81

====

Experiment: Ratio of drug level in brain to plasma in wild type MDR1A expressing CF1 mouse at 30 mg/kg, po after 6 hrs
Assay type: ADME, organism-based
Design: dose 30 mg/kg, route oral
Settings: read-out: BPR
Measured attribute: Kp at 6 h
Response field accepts a number only; no unit should be typed.

query: GET /values?readout=Kp at 6 h&item= `C[C@@H](c1ccc(-c2ccccc2)cc1)[C@H](NC(=O)C(C)(C)N)C(=O)N1CCC[C@H]1c1nc2cc(Cl)c(Cl)cc2[nH]1`
result: 0.04

====

Assay: Clearance in mouse at 1 mg/kg, iv and 2 mg/kg, po by LC-MS/MS analysis
Type: ADME, organism-based
Settings: in vivo
Listing: clearance of selected compounds
Provide only the numeric value, understood in mL/min/kg.

Example entries and their recorded answers appear below.
compound=O=C(CCN1CCC(c2nc(-c3ccccn3)no2)CC1)NC(c1ccc(Cl)cc1)c1ccc(Cl)cc1 measured_attribute=clearance obs_value=105
compound=C[C@H](NC(=O)CCN1CCC(c2ccccc2)CC1)c1ccc(Cl)cc1 measured_attribute=clearance obs_value=185
compound="C[C@@H](c1ccc(-c2ccccc2)cc1)[C@H](NC(=O)C(C)(C)N)C(=O)NC(c1ccc(Cl)cc1)C(F)(F)F (mixture of isomers)" measured_attribute=clearance obs_value=78

From here, focus on the item given below.
query: GET /values?readout=clearance&item= C[C@@H](c1ccc(-c2ccccc2)cc1)[C@H](NC(=O)C(C)(C)N)C(=O)NC(c1ccncc1)c1ccc(Cl)cc1 (mixture of isomers)
result: 85

====

Molecular target: Lysosomal Pro-X carboxypeptidase (Mus musculus, UniProt Q7TMR0)
Sequence (Q7TMR0 whole entry): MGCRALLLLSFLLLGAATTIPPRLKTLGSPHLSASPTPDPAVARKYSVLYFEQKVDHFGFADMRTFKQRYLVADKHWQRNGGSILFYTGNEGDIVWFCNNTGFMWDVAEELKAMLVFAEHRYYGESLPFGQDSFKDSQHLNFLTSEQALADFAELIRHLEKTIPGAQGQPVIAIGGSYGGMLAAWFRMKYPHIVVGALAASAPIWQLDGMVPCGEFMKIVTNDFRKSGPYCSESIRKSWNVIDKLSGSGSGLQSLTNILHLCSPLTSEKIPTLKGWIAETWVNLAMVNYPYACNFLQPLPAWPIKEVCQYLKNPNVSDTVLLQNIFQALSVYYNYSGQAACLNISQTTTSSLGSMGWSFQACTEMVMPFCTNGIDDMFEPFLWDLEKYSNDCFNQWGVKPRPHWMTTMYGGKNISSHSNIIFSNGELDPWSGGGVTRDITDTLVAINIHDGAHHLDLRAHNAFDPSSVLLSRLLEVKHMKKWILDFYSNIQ
Test: Inhibition of recombinant mouse PrCP using Mca-Ala-Pro-Lys(Dnp)-OH as substrate measured for 30 mins by continuous fluorometric assay
Measured attribute: log10 of IC50 (log10 of the value in nM)
Values reflect log10 of reported IC50 (nM).

compound=CC(C)[C@H](NC(=O)CCN1CCC(c2ccccc2)CC1)c1ccc(Cl)cc1 measured_attribute="log10 of IC50" obs_value=0.72

query: GET /values?readout=log10 of IC50&item= `C[C@H](NC(=O)[C@@H](N)[C@@H](C)c1ccc(-c2ccccc2)cc1)c1ccc(Cl)cc1`
result: 1.04

query: Now consider C[C@@H](c1ccc(-c2ccccc2)cc1)[C@H](NC(=O)C(C)(C)N)C(=O)NC(c1ccc(Cl)cc1)C(F)F (mixture of isomers) .
result: 0.82

query: Now consider O=C(CCN1CCC(c2ccccc2)CC1)NC(c1ccncc1)c1ccc(Cl)cc1 (racemic) .
result: 0.32

query: Now consider `O=C(CCN1CCC(c2nc(-c3ccccn3)no2)CC1)N1CCC[C@H]1c1nc2cc(Cl)c(Cl)cc2[nH]1` .
result: 0.60

query: Now consider `O=C(CCN1CCC(c2ccccc2)CC1)NC(c1ccc(Cl)cc1)c1ccc(Cl)cc1` .
result: 0.60

query: Now consider O=C(CCN1CCC(c2ccccc2)CC1)NC(c1ccc(Cl)cc1)C(F)(F)F (stereo not drawn) .
result: 1.15

query: Now consider Cn1cc(C(NC(=O)CCN2CCC(c3ccccc3)CC2)c2ccc(Cl)cc2)cn1 (racemic) .
result: 1.40
